# System: Lefty1
# assay_protocol: Lefty1 binders on small-molecule microarrays, primary screen, biochemical, small-molecule microarray, 635/667 nm fluorescence (AID 1139)
# measurement_conditions: small-molecule microarray binding, fluorescence 635/667; higher = more signal
observed_property: composite z-score

Would you kindly share the measured composite z-score for `C=C(CCCC)C(=O)CC[C@@H](OC(=O)c1cccnc1)c1ccc(OCCO)cc1` ? 1.57

Value lookup for composite z-score; key = CC(=O)n1cc(C(O)C2C=CC3C(=O)N(c4ccccc4)C(=O)C3N2Nc2ccc(C(C)C)cc2)c2ccccc21 (stereo not drawn) 0.304

GET /values?readout=composite z-score&item= `CC(C)C[C@@H]1NC(=O)[C@@H]2C[C@H](C(=O)NCCCCCC[N+](C)(C)C)[C@H](c3cccc(OCCO)c3)N2C1=O` 0.34

Entry under review: `COCCOC(=O)N1C(=O)[C@@]2(c3cc(C#CCC(C(=O)OC)C(=O)OC)ccc31)[C@H](C(=O)NC[C@H](O)c1ccccc1)[C@H]1C(=O)O[C@H](c3ccccc3)[C@H](c3ccccc3)N1[C@@H]2c1ccc(O)cc1` . Reported composite z-score? 0.464

Report composite z-score for CC(C)=CCCC(C)=CC(O)C1C=CC2C(=O)N(c3ccccc3)C(=O)C2N1Nc1ccccc1F (stereo not drawn) please. 0.278

Quick check: composite z-score of `CN(C)CCCCCCNC(=O)[C@@H]1C[C@@H]2C(=O)N[C@@H](CCCCN)C(=O)N2[C@@H]1c1ccc(O)cc1` ? 1.66

Report composite z-score for `COc1ccc([Si](C)(C)[C@H]2[C@H](CC(=O)N3Cc4ccccc4C[C@H]3CO)O[C@@]3(C(=O)N(Cc4ccc(N5C(=O)c6cccc7cccc5c67)cc4)c4ccccc43)[C@@H]2C)cc1` please. 1.01

Give the measured composite z-score of `CN(C)CCCCNC(=O)[C@H]1C[C@H]2C(=O)N[C@@H](CCCC[N+](C)(C)C)C(=O)N2[C@H]1c1ccc(O)cc1` . 0.306

Recorded composite z-score of `CCOC(=O)C[C@H]1[C@H](OC(=O)c2ccc(-c3ccccc3)cc2)[C@@H](NC(=O)Cc2ccc(OC)cc2)c2cc(OCCCO)ccc2N1C(=O)Cc1ccc(OC)cc1` , please. -0.289

Please report the recorded composite z-score for `COCCCNC(=O)[C@@H]1c2ccccc2C(=O)N(C2Cc3ccccc3C2)[C@H]1c1ccc(CO)cc1` . 0.278

Which composite z-score value belongs to `CCOC(=O)C1=CC[C@@H](c2ccccc2)N(S(=O)(=O)c2ccc(C)cc2)[C@H]1c1cccc(OC)c1` ? -0.245

For `Cc1ccc(S[C@]2(C(=O)NC(C)C)CC(=O)N(Cc3ccccc3Cl)[C@@H]2c2ccc(CO)cc2)cc1` , what is its reported composite z-score? -1.56

For `[N-]=[N+]=NCc1ccccc1[C@@H]1OC(c2ccc(OCCCO)cc2)=N[C@]1(Cc1ccccc1)C(=O)NCCN1CCOCC1` , what is its reported composite z-score? -0.0059

# input molecule: `CO[C@H]1O[C@H](CO)[C@@H](OC(=O)CCc2ccccc2)[C@H](OC(=O)c2cc3ccccc3[nH]2)[C@H]1OC(=O)c1cc2ccccc2[nH]1` ; wanted: its composite z-score 0.845

What composite z-score value was documented for this molecule, C=CCC(OC(C)=O)[C@@H]1[C@@H](N(Cc2cccc3ccccc23)C(=O)c2ccc(-c3ccccc3)cc2)c2cc(OCCCO)ccc2N1C(=O)c1ccc(-c2ccccc2)cc1 (stereo partly drawn) ? 0.0683

I'd like to know its composite z-score. The molecule in question is O=C1NC(=O)C2C1C=CC(C(O)c1ccccn1)N2Nc1ccc(Cl)cc1Cl (stereo not drawn) 0.181

Report composite z-score for `COCC(=C=CC[C@@H](O)c1ccc(OCCO)cc1)CCO` please. 0.993

# lookup: composite z-score of `C=C(COC)/C(=C/C[C@H](OC(C)=O)c1cccc(OCCO)c1)c1cnc2ccccc2c1` 1.53
